The compounds below have reported MIC for St. Aureus 209 P.

Sample answers from the record:
CO[C@H]1/C=C/O[C@@]2(C)Oc3c(C)c(O)c4c(c3C2=O)C(=O)C(C(=O)OCC(O)CO)=C(NC(=O)/C(C)=C\C=C\[C@H](C)[C@H](O)[C@@H](C)[C@@H](O)[C@@H](C)[C@H](OC(C)=O)[C@@H]1C)C4=O (stereo partly shown): ~0.5 µg/mL
CO[C@H]1/C=C/O[C@@]2(C)Oc3c(C)c(O)c4c(c3C2=O)C(=O)C(C(=O)N(C)N2CCCCC2)=C(NC(=O)/C(C)=C\C=C\[C@H](C)[C@H](O)[C@@H](C)[C@@H](O)[C@@H](C)[C@H](OC(C)=O)[C@@H]1C)C4=O: ~0.03 µg/mL
COC(=O)C1=C2NC(=O)/C(C)=C\C=C\[C@H](C)[C@H](O)[C@@H](C)[C@@H](O)[C@@H](C)[C@H](OC(C)=O)[C@H](C)[C@@H](OC)/C=C/O[C@@]3(C)Oc4c(C)c(O)c(c(c4C3=O)C1=O)C2=O: 0.05 to 0.1 µg/mL

Moving on to another compound below.
Request: Value wanted: MIC (St. Aureus 209 P) of entry CO[C@H]1/C=C/O[C@@]2(C)Oc3c(C)c(O)c4c(c3C2=O)C(=O)C(C(=O)N2CCN(C)CC2)=C(NC(=O)/C(C)=C\C=C\[C@H](C)[C@H](O)[C@@H](C)[C@@H](O)[C@@H](C)[C@H](OC(C)=O)[C@@H]1C)C4=O
Response: 0.1 to 0.25 µg/mL
